Subject of test: YopH (Yersinia enterocolitica, UniProt P15273)
Sequence (P15273 whole entry, looked up): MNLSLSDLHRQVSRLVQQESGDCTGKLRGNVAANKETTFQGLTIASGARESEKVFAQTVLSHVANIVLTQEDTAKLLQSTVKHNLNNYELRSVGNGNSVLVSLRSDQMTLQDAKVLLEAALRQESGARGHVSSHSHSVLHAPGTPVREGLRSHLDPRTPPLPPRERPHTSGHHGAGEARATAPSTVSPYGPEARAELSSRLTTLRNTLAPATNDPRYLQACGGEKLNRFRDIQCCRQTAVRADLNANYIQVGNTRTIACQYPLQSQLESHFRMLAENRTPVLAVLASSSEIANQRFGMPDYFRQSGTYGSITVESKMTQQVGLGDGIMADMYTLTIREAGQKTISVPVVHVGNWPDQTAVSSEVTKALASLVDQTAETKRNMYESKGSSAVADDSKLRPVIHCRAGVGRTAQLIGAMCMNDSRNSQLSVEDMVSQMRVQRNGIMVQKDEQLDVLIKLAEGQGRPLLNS
pKi: −log10 of the molar value.
Observed property: pKi

Compound: [O]=[V]([S]c1cccc[n+]1[O-])[S]c1cccc[n+]1[O-] [Compound 3]
Measured: 6.72

###

Subject of test: human PTP-PEST (Homo sapiens, UniProt Q05209)
Sequence (Q05209 1-780): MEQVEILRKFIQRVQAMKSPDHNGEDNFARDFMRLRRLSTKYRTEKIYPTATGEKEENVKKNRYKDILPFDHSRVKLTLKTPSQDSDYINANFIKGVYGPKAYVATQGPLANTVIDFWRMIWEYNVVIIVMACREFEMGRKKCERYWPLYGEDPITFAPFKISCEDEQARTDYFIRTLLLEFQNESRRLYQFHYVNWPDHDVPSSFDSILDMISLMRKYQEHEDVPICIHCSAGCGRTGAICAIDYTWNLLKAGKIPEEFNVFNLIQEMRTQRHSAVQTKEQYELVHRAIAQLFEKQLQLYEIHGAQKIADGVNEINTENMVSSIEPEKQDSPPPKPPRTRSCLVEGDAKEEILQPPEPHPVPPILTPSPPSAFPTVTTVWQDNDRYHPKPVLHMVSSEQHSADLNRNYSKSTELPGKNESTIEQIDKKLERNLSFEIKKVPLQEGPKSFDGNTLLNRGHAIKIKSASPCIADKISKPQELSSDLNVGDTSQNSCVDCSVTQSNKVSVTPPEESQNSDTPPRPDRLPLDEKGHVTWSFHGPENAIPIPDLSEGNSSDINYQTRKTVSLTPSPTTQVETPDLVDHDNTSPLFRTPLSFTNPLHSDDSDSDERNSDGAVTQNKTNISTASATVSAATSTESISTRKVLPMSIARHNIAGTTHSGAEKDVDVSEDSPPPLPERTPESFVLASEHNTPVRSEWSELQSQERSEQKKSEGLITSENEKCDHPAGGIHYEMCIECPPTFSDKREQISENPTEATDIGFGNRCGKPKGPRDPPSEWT

Molecule: [O]=[V]([S]c1cccc[n+]1[O-])[S]c1cccc[n+]1[O-] [Compound 3]
IC50 (µM): 41.3

###

Subject of test: UniProt:Q9Y2R2
Sequence (Q9Y2R2 1-807): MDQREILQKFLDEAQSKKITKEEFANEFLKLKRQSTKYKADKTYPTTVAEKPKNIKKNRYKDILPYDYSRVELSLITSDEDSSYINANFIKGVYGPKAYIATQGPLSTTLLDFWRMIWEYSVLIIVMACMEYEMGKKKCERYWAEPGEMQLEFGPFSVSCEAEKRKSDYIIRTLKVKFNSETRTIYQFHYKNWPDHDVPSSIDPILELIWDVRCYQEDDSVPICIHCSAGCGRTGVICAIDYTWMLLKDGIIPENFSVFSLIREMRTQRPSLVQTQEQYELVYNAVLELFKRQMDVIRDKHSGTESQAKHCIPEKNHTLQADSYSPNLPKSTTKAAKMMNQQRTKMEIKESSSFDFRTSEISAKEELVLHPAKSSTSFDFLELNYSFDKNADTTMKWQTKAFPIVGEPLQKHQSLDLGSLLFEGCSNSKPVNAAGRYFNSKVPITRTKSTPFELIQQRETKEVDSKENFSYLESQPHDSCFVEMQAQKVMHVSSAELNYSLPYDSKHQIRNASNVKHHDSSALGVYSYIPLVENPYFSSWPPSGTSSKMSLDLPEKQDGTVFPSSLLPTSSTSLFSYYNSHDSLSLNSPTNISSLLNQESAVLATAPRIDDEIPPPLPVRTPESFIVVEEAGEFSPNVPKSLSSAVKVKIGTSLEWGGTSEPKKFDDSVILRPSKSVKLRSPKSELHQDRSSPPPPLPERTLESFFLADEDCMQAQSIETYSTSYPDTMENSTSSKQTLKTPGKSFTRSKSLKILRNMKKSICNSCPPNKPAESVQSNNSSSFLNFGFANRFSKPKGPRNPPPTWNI
pIC50: −log10 of the molar value.
Observed property: pIC50

Query smiles: [O]=[V]([S]c1cccc[n+]1[O-])[S]c1cccc[n+]1[O-]
Measured: 4.55

###

Test system: Mycobacterium tuberculosis PtpB
Assay type: biochemical
Particulars: read-out: IC50 PtpB

Query smiles: [O]=[V]([S]c1cccc[n+]1[O-])[S]c1cccc[n+]1[O-]
Measurement unit: µM
IC50: 52.6

###

Subject of test: Mycobacterium tuberculosis PtpA (Mycobacterium tuberculosis, UniProt P9WIA1)
Sequence (P9WIA1 whole entry): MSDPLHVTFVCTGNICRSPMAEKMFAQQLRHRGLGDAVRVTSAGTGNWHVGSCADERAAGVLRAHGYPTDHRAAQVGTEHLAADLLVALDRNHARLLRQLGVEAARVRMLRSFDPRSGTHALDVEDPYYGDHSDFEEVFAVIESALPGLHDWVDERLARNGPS
pIC50: −log10 of the molar value.
Observed property: pIC50

Query smiles: [O]=[V]([S]c1cccc[n+]1[O-])[S]c1cccc[n+]1[O-]
Observed property: pIC50
Measured: 5.04
